Reference source: patent US9181214B2

test system: human GPR119 (Homo sapiens)
Construct: expressed in transfected cells; host or cells: HEK293 (transient transfection, Lipofectamine 2000)
Sequence (Q8TDV5 1-335): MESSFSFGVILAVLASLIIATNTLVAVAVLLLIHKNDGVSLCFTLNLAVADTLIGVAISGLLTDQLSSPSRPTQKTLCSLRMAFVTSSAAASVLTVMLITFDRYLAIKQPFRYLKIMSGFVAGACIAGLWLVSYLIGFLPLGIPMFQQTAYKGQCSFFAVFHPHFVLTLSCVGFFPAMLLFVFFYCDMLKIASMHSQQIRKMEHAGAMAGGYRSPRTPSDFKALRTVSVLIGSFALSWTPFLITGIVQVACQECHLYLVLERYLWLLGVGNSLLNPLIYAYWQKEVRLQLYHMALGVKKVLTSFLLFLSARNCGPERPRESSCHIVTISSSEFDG
protocol description: In vitro cyclic AMP assay (Cisbio HTRF) in HEK293 cells transfected with human GPR119
Assay type: cell-based
conditions: cAMP, Table I, Emax varies between 65 to 80%
pEC50: −log10 of the molar value.
For each entry below, report its pEC50 value.

These solved cases illustrate the format of a correct answer.
CC(C)OC(=O)N1CCC(c2nc3cc(-c4ccc(C(F)F)cc4)ccc3o2)CC1 [EXAMPLE-29] = 7.30 to 7.60
CC(C)(C)OC(=O)N1CCC(c2nc3cc(-c4ccc(C(N)=O)c(F)c4)ccc3o2)CC1 [EXAMPLE-21] = 7.00 to 7.30
CC(C)(C)OC(=O)N1CCC(c2nc3cc(-c4ccc(C(N)=O)c(Cl)c4)ccc3o2)CC1 [EXAMPLE-20] = 7.30 to 7.60

Below is a list of compounds. For each, state its recorded pEC50.
1. CC(C)OC(=O)N1CCC(c2nc3cc(-c4ccc(C(N)=O)c(F)c4)ccc3o2)CC1 [EXAMPLE-31]
2. CC(C)(C)OC(=O)N1CCC(c2nc3cc(-c4ccc(S(C)(=O)=O)cc4F)ccc3o2)CC1 [EXAMPLE-4]
3. CCC(C)OC(=O)N1CCC(c2nc3cc(-c4ccc(-n5cnnn5)cc4F)ccc3o2)CC1 (stereo not shown) [EXAMPLE-24]
4. CC(C)(C)OC(=O)N1CCC(c2nc3cc(-c4ccc(-n5cnnn5)c(F)c4)ccc3o2)CC1 [EXAMPLE-15]

["≥ 7.60", "7.00 to 7.30", "≥ 7.60", "6.30 to 7.00"]

* * *

For each entry below, report its activation at 10 µM value.
test system: human GPR119 (Homo sapiens)
Construct: expressed in transfected cells; host or cells: HEK293 (transient transfection, Lipofectamine 2000)
protocol description: In vitro cyclic AMP assay (Cisbio HTRF) in HEK293 cells transfected with human GPR119
Format: cell-based
conditions: 1 h, % Induction @ 10 μM, cAMP, Table II
Answers are plain numbers, in %.

CS(=O)(=O)c1ccc(-c2nc3cc(C4CCNCC4)ccc3o2)c(F)c1 [EXAMPLE-61, 2,2,2-trifluoroacetate] = 29.8
CCOC(=O)N1CCC(c2ccc3nc(-c4ccc(S(C)(=O)=O)cc4F)oc3c2)CC1 [EXAMPLE-72] = 81.6
CC(C)(C)OC(=O)N1CCC(c2ccc3nc(-c4ccc(S(C)(=O)=O)cc4F)oc3c2)CC1 [EXAMPLE-67] = 73

# ---- query molecule ----
Would you kindly share the measured activation at 10 µM for CC(C)OC(=O)N1CCC(c2ccc3oc(-c4ccc(C(F)(F)F)cc4)nc3c2)CC1 [EXAMPLE-77] ?
80.4
